System: E. coli clinical strain 2019XJ25
testName: microbe, parasite or virus in culture
Format: cell-based, Escherichia coli
conditions: clinical strain 2019XJ25
quantity: MIC

# inputSmiles, MIC
rows = [
    ("COC(=O)[C@H](CCCNC(=N)N)NC(=O)CCCC(=O)O[C@H](c1ccc(S(C)(=O)=O)cc1)[C@@H](CF)NC(=O)C(Cl)Cl", ">100 µM"),
    ("CS(=O)(=O)c1ccc([C@@H](OC(=O)CCCC(=O)N[C@@H](CCCNC(=N)N)C(N)=O)[C@@H](CF)NC(=O)C(Cl)Cl)cc1", ">100 µM"),
]

Query compound follows.
# input Provide measured MIC value, entry: N=C(N)NCCC[C@H](NC(=O)[C@H](CCCNC(=N)N)NC(=O)[C@H](CCCNC(=N)N)NC(=O)[C@H](CCCNC(=N)N)NC(=O)[C@H](CCCNC(=N)N)NC(=O)[C@@H](N)CCCNC(=N)N)C(N)=O
# output 100 µM

* * *

Test system: E. coli clinical strain 2019XJ25
testName: microbe, parasite or virus in culture
Assay type: cell-based, Escherichia coli
conditions: clinical strain 2019XJ25
Recorded MIC by entry

Recorded MIC, per entry:
# compound, MIC
data = [
    ("COC(=O)[C@@H](N)CCCNC(=N)N [Compound D1]", ">100 µM"),
    ("N=C(N)NCCC[C@H](N)C(N)=O [Compound D2]", ">100 µM"),
]

Query compound follows.
# input Provide measured MIC value, entry: COC(=O)[C@H](CCCNC(=N)N)NC(=O)CCCCC(=O)O[C@H](c1ccc(S(C)(=O)=O)cc1)[C@@H](CF)NC(=O)C(Cl)Cl
# output >100 µM

* * *

Recorded MIC by entry
Test system: E. coli clinical strain 2018XJ108
testName: microbe, parasite or virus in culture
Type: cell-based, Escherichia coli
conditions: Escherichia coli; clinical E. coli 2018XJ108, MHB; read-out: MIC

Recorded MIC, per entry:
# compound, MIC
measured = [
    ("CS(=O)(=O)c1ccc([C@@H](OC(=O)CCCC(=O)O)[C@@H](CF)NC(=O)C(Cl)Cl)cc1 [Compound C2, florfenicol glutarate]", "> 100 µM"),
    ("CS(=O)(=O)c1ccc([C@@H](OC(=O)CCCCC(=O)O)[C@@H](CF)NC(=O)C(Cl)Cl)cc1 [Compound C3]", "> 100 µM"),
    ("CS(=O)(=O)c1ccc([C@@H](OC(=O)CCC(=O)O)[C@@H](CF)NC(=O)C(Cl)Cl)cc1 [Compound C1, florfenicol succinate]", "> 100 µM"),
]

# input Provide measured MIC value, entry: CS(=O)(=O)c1ccc([C@@H](O)[C@@H](CF)NC(=O)C(Cl)Cl)cc1 [Florfenicol]
# output 6.25 µM

* * *

System: S. aureus (ATCC 292130)
testName: microbe, parasite or virus in culture
Format: cell-based, Staphylococcus aureus
conditions: ATCC 292130
Where a SMILES comes first, the peptide text is derived from it.
quantity: MIC

# molecule, quantity, reportedMeasurement
rows = [
    ("COC(=O)[C@@H](N)CCCNC(=N)N [Compound D1]", "MIC", ">100 µM"),
    ("COC(=O)[C@H](CCCNC(=N)N)NC(=O)CCCC(=O)O[C@H](c1ccc(S(C)(=O)=O)cc1)[C@@H](CF)NC(=O)C(Cl)Cl", "MIC", ">100 µM"),
    ("CS(=O)(=O)c1ccc([C@@H](OC(=O)CCCCC(=O)N[C@@H](CCCNC(=N)N)C(N)=O)[C@@H](CF)NC(=O)C(Cl)Cl)cc1", "MIC", ">100 µM"),
]

# input Provide measured MIC value, entry: N=C(N)NCCC[C@H](N)C(N)=O [Compound D2]
# output >100 µM

# input Provide measured MIC value, entry: N=C(N)NCCC[C@H](NC(=O)[C@@H](N)CCCNC(=N)N)C(N)=O [Compound D3] (H-Arg-Arg-NH2)
# output >100 µM

# input Provide measured MIC value, entry: CS(=O)(=O)c1ccc([C@@H](OC(=O)CCC(=O)N[C@@H](CCCNC(=N)N)C(N)=O)[C@@H](CF)NC(=O)C(Cl)Cl)cc1 [Compound E2]
# output 25 µM

# input Provide measured MIC value, entry: N=C(N)NCCC[C@H](NC(=O)[C@H](CCCNC(=N)N)NC(=O)[C@H](CCCNC(=N)N)NC(=O)[C@H](CCCNC(=N)N)NC(=O)[C@H](CCCNC(=N)N)NC(=O)[C@@H](N)CCCNC(=N)N)C(N)=O
# output 50 µM

# input Provide measured MIC value, entry: COC(=O)[C@H](CCCNC(=N)N)NC(=O)CCC(=O)O[C@H](c1ccc(S(C)(=O)=O)cc1)[C@@H](CF)NC(=O)C(Cl)Cl [Compound E1]
# output 50 µM

The values you see were collected from paper PMC9284121.
